So I've got IC50 readings for cruzain (Trypanosoma cruzi, UniProt P25779), take a look.

Reference set, count: 5
| compound | IC50 |
| --- | --- |
| CCCCC(NC(=O)C(Cc1ccccc1)NC(=O)N1CCOCC1)C(=O)c1nc2ccccc2o1 (stereo not drawn) [Compound 19b] | 4 nM |
| CCCC[C@H](NC(=O)C1(NC(=O)c2ccc(-c3csc(N4CCN(C)CC4)n3)cc2)CCCCC1)C(=O)c1nc2ccccc2o1 [Compound 23b] | 380 nM |
| CCC[C@H](NC(=O)C1(NC(=O)c2ccc(-c3csc(N4CCN(C)CC4)n3)cc2)CCCCC1)C(=O)c1nc2ccccc2o1 [Compound 23a] | 30 nM |
| CCCCC(NC(=O)C(CC(C)C)NC(=O)N1CCOCC1)C(=O)c1nc2ccccc2o1 (stereo not drawn) [Compound 19a] | 1 nM |
| CC(C)CC(NC(=O)c1ccc(-c2csc(Nc3ccncc3)n2)cc1)C(=O)NCCN(CC(C)C)CC(C)C (stereo not drawn) | 1600 nM |

Shifting focus to the compound that follows.
Could you share which IC50 value was measured for CCCCC(NC(=O)C(CCC)NC(c1ccc(-c2ccc(S(C)(=O)=O)cc2)cc1)C(F)(F)F)C(=O)c1nnc(-c2ccco2)o1 (stereo not drawn) ?
10 nM

====

Values of log10(IC50) reported for rhodesain (Trypanosoma brucei rhodesiense) appear below.
Hi team, quick reminder: these entries are log10 of IC50 (nM).

Observe how each entry below is paired with its result.
| compound | target.of.assay | property.name | observed.measurement |
| --- | --- | --- | --- |
| CC(C)CC(NC(=O)c1ccc(-c2csc(Nc3ccncc3)n2)cc1)C(=O)NCCN(CC(C)C)CC(C)C (stereo not drawn) | rhodesain (Trypanosoma brucei rhodesiense) | log10(IC50) | 2.81 |
| CCCCC(NC(=O)C(Cc1ccccc1)NC(=O)N1CCOCC1)C(=O)c1nc2ccccc2o1 (stereo not drawn) [Compound 19b] | rhodesain (Trypanosoma brucei rhodesiense) | log10(IC50) | 0.00 |

Value sought for every listed compound: log10(IC50).
1. CCC[C@H](NC(=O)C1(NC(=O)c2ccc(-c3csc(N4CCN(C)CC4)n3)cc2)CCCCC1)C(=O)c1nc2ccccc2o1 [Compound 23a]
2. CCCC[C@H](NC(=O)C1(NC(=O)c2ccc(-c3csc(N4CCN(C)CC4)n3)cc2)CCCCC1)C(=O)c1nc2ccccc2o1 [Compound 23b]
3. CCCCC(NC(=O)C(CC(C)C)NC(=O)N1CCOCC1)C(=O)c1nc2ccccc2o1 (stereo not drawn) [Compound 19a]
4. CCCCC(NC(=O)C(CCC)NC(c1ccc(-c2ccc(S(C)(=O)=O)cc2)cc1)C(F)(F)F)C(=O)c1nnc(-c2ccco2)o1 (stereo not drawn)

[3.59, 3.70, 0.00, 0.78]

====

# target.of.assay: UniProt:Q8I6U4
# Sequence (Q8I6U4 244-484): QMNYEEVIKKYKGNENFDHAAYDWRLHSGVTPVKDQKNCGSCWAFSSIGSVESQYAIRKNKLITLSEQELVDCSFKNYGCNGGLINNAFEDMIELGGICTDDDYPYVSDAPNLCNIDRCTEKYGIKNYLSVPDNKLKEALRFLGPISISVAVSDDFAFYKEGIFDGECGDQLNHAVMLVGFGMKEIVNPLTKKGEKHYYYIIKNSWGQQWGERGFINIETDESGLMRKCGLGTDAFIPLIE
property.name: IC50 (nM)
Answers are plain numbers, in nM.

Record excerpt, results attached:
| compound | IC50 (nM) |
| --- | --- |
| CCCCC(NC(=O)C(CC(C)C)NC(=O)N1CCOCC1)C(=O)c1nc2ccccc2o1 (stereo not drawn) [Compound 19a] | 2.1 |
| CC(C)CC(NC(c1ccc(-c2ccc(S(C)(=O)=O)cc2)cc1)c1nccs1)C(=O)NC1(C#N)CC1 (stereo not drawn) [Compound 21] | 2 |

Alright, here's another compound for you.
// query IC50 value for entry CC(C)CC(NC(=O)N1CCOCC1)C(=O)NC(C=CS(=O)(=O)c1ccccc1)CCc1ccc(O)cc1 (stereo not drawn) [Compound 18a]
7.6

====

# target.of.assay: falcipain-3 (Plasmodium falciparum, UniProt Q8IIL0)
# Construct: made in house
# Sequence (Q8IIL0 243-492): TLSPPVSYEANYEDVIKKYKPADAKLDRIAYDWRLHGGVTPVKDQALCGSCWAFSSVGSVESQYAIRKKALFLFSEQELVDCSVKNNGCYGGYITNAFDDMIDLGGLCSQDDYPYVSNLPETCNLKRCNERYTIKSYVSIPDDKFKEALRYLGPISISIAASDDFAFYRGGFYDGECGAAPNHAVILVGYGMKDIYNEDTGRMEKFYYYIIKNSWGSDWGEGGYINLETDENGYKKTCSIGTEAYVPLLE
# protocol.text: Falcipain-3 protease inhibition assay (Z-Leu-Arg-AMC)
# Assay type: biochemical
property.name: pIC50
Numbers only, as −log10 of the molar value.

Give the measured pIC50 of CC(C)CC(NC(=O)N1CCOCC1)C(=O)NC(C=CS(=O)(=O)c1ccccc1)CCc1ccccc1 (stereo not shown) [Compound 18b] .
7.54
